experiment: Tissue distribution of HHC; type: in vivo, mice; details: male, mouse, liver, ip, 40 mg/kg

{"molecule": "COc1cc(CCC(=O)CC(O)CCc2ccc(O)c(OC)c2)ccc1O (stereo not shown) [HHC, hexahydrocurcumin]", "unit.of.measurement": "min", "Tmax": 5}

---

test: Pharmacokinetics of HHC in plasma after single oral administration in mice; format: in vivo; conditions: male, mouse, po, 40 mg/kg

{"compound": "COc1cc(CCC(=O)CC(O)CCc2ccc(O)c(OC)c2)ccc1O (stereo not shown) [HHC, hexahydrocurcumin]", "Cmax / ng/mL": 194}

---

assay: Pharmacokinetics of HHC in plasma after single IP administration in mice; type: in vivo; details: male, mouse, ip, 40 mg/kg

{"molecule": "COc1cc(CCC(=O)CC(O)CCc2ccc(O)c(OC)c2)ccc1O (stereo not shown) [HHC, hexahydrocurcumin]", "MRT last, min": 42.5}

---

assay: Pharmacokinetics of HHC in plasma after single oral administration in mice; format: in vivo; conditions: male, mouse, po, 40 mg/kg

{"compound": "COc1cc(CCC(=O)CC(O)CCc2ccc(O)c(OC)c2)ccc1O (stereo not shown) [HHC, hexahydrocurcumin]", "AUC(0-t)": "127 ng·h/mL"}

---

assay: Pharmacokinetics of HHC in plasma after single oral administration in mice; format: in vivo; details: male, mouse, po, 40 mg/kg
reported.metric: AUC(0-inf)

{"molecule": "COc1cc(CCC(=O)CC(O)CCc2ccc(O)c(OC)c2)ccc1O (stereo not shown) [HHC, hexahydrocurcumin]", "result": "0.142 µg·h/mL"}

---

experiment: Tissue distribution of HHC; type: in vivo, mice; conditions: male, mouse, liver, ip, 40 mg/kg

{"molecule": "COc1cc(CCC(=O)CC(O)CCc2ccc(O)c(OC)c2)ccc1O (stereo not shown) [HHC, hexahydrocurcumin]", "MRT last": "2.6 h"}

---

assay: Tissue distribution of HHC; type: in vivo, mice; conditions: male, mouse, brain, ip, 40 mg/kg

{"molecule": "COc1cc(CCC(=O)CC(O)CCc2ccc(O)c(OC)c2)ccc1O (stereo not shown) [HHC, hexahydrocurcumin]", "MRT last (h)": 1.05}

---

experiment: Tissue distribution of HHC; type: in vivo, mice; settings: male, mouse, brain, ip, 40 mg/kg

{"compound": "COc1cc(CCC(=O)CC(O)CCc2ccc(O)c(OC)c2)ccc1O (stereo not shown) [HHC, hexahydrocurcumin]", "AUC(0-inf), ng·h/mL": 21.1}

---

assay: Tissue distribution of HHC; format: in vivo, mice; conditions: male, mouse, kidney, ip, 40 mg/kg

{"compound": "COc1cc(CCC(=O)CC(O)CCc2ccc(O)c(OC)c2)ccc1O (stereo not shown) [HHC, hexahydrocurcumin]", "unit.of.measurement": "min", "Tmax": 6.3}

---

test: Tissue distribution of HHC; assay type: in vivo, mice; details: male, mouse, brain, ip, 40 mg/kg
reported.metric: MRT inf (h)

{"molecule": "COc1cc(CCC(=O)CC(O)CCc2ccc(O)c(OC)c2)ccc1O (stereo not shown) [HHC, hexahydrocurcumin]", "reported.metric": "MRT inf", "result.number": 2.04}

---

assay: Tissue distribution of HHC; type: in vivo, mice; conditions: male, mouse, brain, ip, 40 mg/kg

{"compound": "COc1cc(CCC(=O)CC(O)CCc2ccc(O)c(OC)c2)ccc1O (stereo not shown) [HHC, hexahydrocurcumin]", "unit.of.measurement": "min", "Tmax": 5}

Taken from paper PMC11447725.
